# Test system: U251 CNS
# protocolDetails: NCI tumour cell line growth inhibition, 48 h

compound: COc1ccc2c(=O)c3ccoc3[nH]c2c1
unit: µM
qualifier: >
TGI: 100

compound: CC1(C)CN(CC(=O)O)CC(Cc2ccc(OCC(=O)O)cc2)N(CC(=O)O)CC(C)(C)SS1 (stereo not given)
unit: µM
qualifier: >
TGI: 100

compound: O=C1Nc2cccc(Cl)c2/C1=C\c1cccnc1
unit: µM
qualifier: =
TGI: 35.2

compound: Nc1ccc(Oc2ccc(C34CC5CC(C3)CC(c3ccc(Oc6ccc(N)cc6C(F)(F)F)cc3)(C5)C4)cc2)c(C(F)(F)F)c1
unit: µM
qualifier: =
TGI: 27.6

compound: OCc1ccc(-c2nc(-c3ccc4c(c3)OCO4)c(-c3ccccn3)[nH]2)cc1
unit: µM
qualifier: >
TGI: 25

compound: FC(F)(F)c1ccc2c(-c3cc[nH]c3)ccnc2c1
unit: µM
qualifier: >
TGI: 100

compound: CCOC(=O)c1cc(=O)c2cccc3c2n1CCS3
unit: µM
qualifier: >
TGI: 100

compound: Cc1cc(Cl)ccc1NC(=O)/C(=N\NC(C)(C)C)C(C#N)c1nc(-c2ccc([N+](=O)[O-])cc2)cs1 (stereo not given)
unit: µM
qualifier: >
TGI: 100

compound: Cc1cccc2c(=O)c3c(sc12)c(NCCCNCCO)nc1ccccc13
unit: µM
qualifier: =
TGI: 2.96

compound: CCOC(=O)c1c(CN2CCNCC2)nc2ccc(Cl)cc2c1-c1ccccc1
unit: µM
qualifier: =
TGI: 26.7

----------
Listing of recorded TGI by entry.
# Test system: HL-60(TB) leukemia
# protocolDetails: NCI tumour cell line growth inhibition, 48 h

molecule: O=C(NC(CS)C(=O)O)c1c2ccccc2nc2ccccc12 (centres undefined)
TGI: > 100 µM

molecule: CCS1=C2C(=O)CC(C)(C)CC2=Nc2ccccc21 (centres undefined)
TGI: > 100 µM

molecule: COC(=O)CCc1n(Cc2ccc3ccccc3c2)c2ccccc2[n+]1Cc1ccc2ccccc2c1
TGI: 0.799 µM

molecule: Cc1cc(C)c(/C=C2\C(=O)Nc3ccccc32)[nH]1
TGI: > 34.1 µM

molecule: CC(=O)OC(C(=O)O)C(OC(C)=O)C(OC(C)=O)C(OC(C)=O)C(=O)O (centres undefined)
TGI: > 100 µM

molecule: CC(C)C1=Cc2ccc3c(c2C(=O)C1=O)CCCC3
TGI: 1.95 µM

molecule: CCOC(=O)NC(=O)c1cn(CCSCCOC(=O)NCCCCCCNC(=O)OCCSCCn2cc(C(=O)NC(=O)OCC)c(=O)n(C)c2=O)c(=O)n(C)c1=O
TGI: 43 µM

molecule: O=C1CN=C(c2ccc[nH]2)c2cc(Cl)ccc2N1
TGI: > 100 µM

molecule: COc1ccc(O)c(/C=N\Nc2ccccc2)c1
TGI: 17.4 µM

molecule: Cc1ccc(NC(=O)C2C3C=CC(O3)C2C(=O)O)cc1 (centres undefined)
TGI: > 100 µM

molecule: N#Cc1c(-c2ccc([N+](=O)[O-])cc2)c2c([nH]c1=O)-c1ccccc1CCC2
TGI: > 100 µM

molecule: Cc1c(-c2ccccc2)c(C#N)c2nnn(-c3ccc(Cl)cc3)c(=O)n12
TGI: > 100 µM

molecule: COC(=O)C(Cc1nc2ccc(Cl)cc2[nH]c1=O)C(=O)C(=O)Nc1cc(C)ccc1C (centres undefined)
TGI: > 100 µM

molecule: Cc1ccc(S(=O)(=O)C2=Cc3ccccc3C2(O)c2ccccc2)cc1 (centres undefined)
TGI: 29.6 µM
